Entries and their measured Relative Sleeping Time follow.
System: mice
Test: extension of Secobarbital sleeping time by synergists
Format: in vivo, Swiss albino white male mice
Settings: Secobarbital 37 mg/K, synergist 110 mg/K; treated/control
Property name: Relative Sleeping Time

>>> df
                      smiles_string  result
0    C#CCOCc1ccc(Cl)cc1[N+](=O)[O-]     1.4
1          C#CCOCc1c(Cl)ccc(Cl)c1Cl     1.4
2  C#CCOCc1ccc(Cl)c([N+](=O)[O-])c1       2
3    C#CCOCc1cccc([N+](=O)[O-])c1Cl     1.8
4              C#CCOCc1c(Cl)cccc1Cl     2.1
5             C#CCn1nc(Cl)c2ccccc21     1.3
6          C#CCOCc1ccc(Cl)c(Cl)c1Cl     1.2

----------
Entries and their measured mice lethality (number dead) follow.
System: mice
Assay: synergism of acute toxicity of Dimetilan, GS 13005, Secobarbital and Methadone (intraperitoneal)
Assay type: in vivo, Swiss albino white male mice
Settings: GS 13005 71 mg/kg + synergist 213 mg/kg
Property name: mice lethality (number dead)

In [3]: df
Out[3]:
                                   compound  measured_number
0               C#CCOCc1c(Cl)cccc1Cl [II-H]                7
1     C#CCOCc1c(Cl)cccc1[N+](=O)[O-] [II-K]                3
2  C#CCOCc1ccc([N+](=O)[O-])cc1 [II-Q, 4-nitrobenzyl 2-propynyl ether]                6
3     C#CCOCc1ccc(Cl)cc1[N+](=O)[O-] [II-J]                6
4  CCOCCOCCOC(C)Oc1ccc2c(c1)OCO2 (stereo not shown) [Sesoxane, reference compound]                0
5  C#CCOCc1ccccc1[N+](=O)[O-] [II-P, 2-nitrobenzyl 2-propynyl ether]                6
6           C#CCOCc1ccc(Cl)c(Cl)c1Cl [II-D]                3

----------
Tested on: mice
Test: extension of Secobarbital sleeping time by synergists
Format: in vivo, Swiss albino white male mice
Settings: Secobarbital 37 mg/K, synergist 74 mg/K
The threshold is inclusive: Mean Sleeping Time of exactly 30 min counts as 1 (yes); values below receive 0 (no).

>>> df
                                    compound  assigned_category
 0     C#CCOCc1ccc([N+](=O)[O-])cc1Cl [II-N]             0 (no)
 1             C#CCON=C(C)c1ccc(Cl)cc1 [I-D]            1 (yes)
 2      C#CCON=Cc1cccc([N+](=O)[O-])c1 [I-B]            1 (yes)
 3  C#CCOCc1cccc2ccccc12 [II-R, α-naphthylmethyl 2-propynyl ether]            1 (yes)
 4           C#CCON=C(C)c1ccc2ccccc2c1 [I-F]            1 (yes)
 5     C#CCOCc1c(Cl)cccc1[N+](=O)[O-] [II-K]            1 (yes)
 6   C#CCOCc1ccc(Cl)c([N+](=O)[O-])c1 [II-M]             0 (no)
 7  C#CCOC(c1ccc(Cl)cc1Cl)C(C)[N+](=O)[O-] (stereo not drawn) [IV-A]            1 (yes)
 8              C#CCON=Cc1ccc(Cl)cc1Cl [I-G]             0 (no)
 9  C#CCOC(c1ccc(Cl)cc1)C(C)[N+](=O)[O-] (stereo not drawn) [IV-C]            1 (yes)
10              C#CCON=Cc1cccc2ccccc12 [I-I]            1 (yes)

----------
Tested on: polyvalent resistant (CH strain) houseflies
Experiment: whole plant or invertebrate
Assay type: in vivo, housefly (CH strain)
Conditions: CH strain; GS 13798 1 + synergist 2 μg/fly
Excerpt: The effect of O-(2-propynyl) oximes with Dimetilan and with GS 13798 was obtained from tests on polyvalent resistant (CH strain) houseflies that had been chilled and to the dorsal region of which was applied an acetone solution of synergist and insecticide at a ratio of two to one. […] In Table IX, and in the tables following it, the doses of topically applied insecticides and of synergists unless otherwise noted are expressed as micrograms per fly (μg/fly). […]
Entries and their measured percent kill after 24 hours follow.
Property name: percent kill after 24 hours

>>> print(df.to_string())
                          molecule  result
0    C#CCON=C(C)c1ccc(Cl)cc1 [I-D]    100%
1   C#CCON=Cc1ccc(OC)c(OC)c1 [I-A]     65%
2  C#CCON=C(C)c1ccc2ccccc2c1 [I-F]     95%

----------
Entries and their measured Contact Synergistic Ratio, Carbaryl (LC50 insecticide alone / LC50 with synergist) follow.
System: Wilson strain house flies
Type: in vivo, house fly (susceptible Wilson strain)
Details: in vivo
Procedure: The required solutions of the insecticide and of the synergist compound were prepared in acetone at a concentration of one milligram per milliliter. […] Counts were made at intervals, but the recorded mortality was based on 24-hour kill, rather than knockdown. […] The LC50 of the combination of insecticide and synergist was determined at a synergist to insecticide parts by weight ratio of five to one.
Property name: Contact Synergistic Ratio, Carbaryl (LC50 insecticide alone / LC50 with synergist)

>>> df
                                  compound  measured_number
0            C#CCOCc1ccc(Cl)c(Cl)c1 [II-C]              100
1              C#CCOCc1ccc(Cl)cc1Cl [II-B]               50
2          C#CCOCc1cc(Cl)c(Cl)cc1Cl [II-F]              150
3  C#CCn1ncc2cc([N+](=O)[O-])ccc21 [III-A]              143
4          C#CCON=C(C)c1ccc2ccccc2c1 [I-F]              200
5            C#CCn1nc(Cl)c2ccccc21 [III-B]              117
6            C#CCn1ncc2ccc(Cl)cc21 [III-D]              250
7             C#CCOCc1ccc2c(c1)OCO2 [II-G]              100

----------
Test system: mice
Test: extension of Secobarbital sleeping time by synergists
Format: in vivo, Swiss albino white male mice
Settings: Secobarbital 37 mg/K, synergist 74 mg/K; treated/control
Property name: Relative Sleeping Time

>>> print(df.to_string())
                                   compound           property_name  result
0  C#CCOC(c1ccc(Cl)cc1)C(C)[N+](=O)[O-] (stereo not drawn)  Relative Sleeping Time     4.7
1                   C#CCON=C(C)c1ccc(Cl)cc1  Relative Sleeping Time     1.9
2  CCOCCOCCOC(C)Oc1ccc2c(c1)OCO2 (stereo not drawn) [Sesoxane, reference compound]  Relative Sleeping Time     6.1
